# test.protocol: physchem
# experimental.conditions: octanol/water
# Description: Lipophilicity, log D of the compound
measure: logD
Could you keep your reply to the number by itself?

The compound `CS(=O)(=O)N1CCN(Cc2cc3nc(-c4cnc(N)nc4)nc(N4CCOCC4)c3s2)CC1` showed logD equal to 1.3

* * *

# test.protocol: in vivo
# experimental.conditions: Sprague-Dawley, rat, plasma, iv, 1 mg/kg
Parameter: clearance. Scope: all listed entries.

{"structure.smiles.string": "CS(=O)(=O)N1CCN(Cc2cc3nc(-c4cnc(N)nc4)nc(N4CCOCC4)c3s2)CC1.O=C(O)C(F)(F)F", "clearance": "24 mL/min/kg"}

The compound `Cc1c(CN2CCN(C(=O)C(C)(C)N)CC2)sc2c(N3CCOCC3)nc(-c3cnc(N)nc3)nc12.O=C(O)C(F)(F)F` showed clearance equal to 84 mL/min/kg
